# Target: 11CBy receptors (Homo sapiens)
# Construct: expressed in transfected cells; washed membranes
# Sequence (Q99705 whole entry): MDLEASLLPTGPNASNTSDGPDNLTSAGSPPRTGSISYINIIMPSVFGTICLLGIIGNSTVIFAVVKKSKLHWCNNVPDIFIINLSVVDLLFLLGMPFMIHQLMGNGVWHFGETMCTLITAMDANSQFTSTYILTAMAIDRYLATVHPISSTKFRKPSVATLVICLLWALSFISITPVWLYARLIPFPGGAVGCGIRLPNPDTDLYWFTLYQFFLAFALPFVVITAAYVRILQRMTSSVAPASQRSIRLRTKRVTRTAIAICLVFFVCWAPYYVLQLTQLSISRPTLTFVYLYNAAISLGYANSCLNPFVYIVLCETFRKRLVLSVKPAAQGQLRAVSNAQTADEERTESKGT
# Assay: Radioligand binding assay, [125I]-Melanin Concentrating Hormone competition on membranes from HEK293 cells stably expressing 11CBy receptors
# Condition Info: [125I]-MCH 0.22 nM, 45 min at 37° C., pH 7.4, pKi calculated from IC50, read-out: pKi range (converted)
# Protocol: The activity of the compounds used in this invention may be assessed by competitive binding assays to 11CBy receptors, as follows: Radioligand Binding Studies Radioligand binding assays were carried out on well washed membranes from HEK293 cells stably expressing 11CBy receptors. […] Non-specific binding was defined using 0.1 mM Melanin Concentrating Hormone (obtained from Bachem). […] Microscint 20 (Packard) was added to the filters and the radioactivity measured using a Packard TopCount. […]
Measurement Type: Ki

>>> test_value("COc1cc(NC(=O)c2ccc(C3CCCCC3)cc2)ccc1N1CCN(C)CC1")
"39.8 to 79.4 nM"
>>> test_value("CCN(CC)CCOc1ccc(N(C)C(=O)c2ccc(-c3ccccc3)cc2)cc1OC")
"15.8 to 31.6 nM"
>>> test_value("COc1cc(NC(=O)c2ccc(-c3ccccc3)cc2Cl)ccc1OCCN(C(C)C)C(C)C")
"39.8 to 79.4 nM"
>>> test_value("COc1cc(NC(=O)c2ccc(C3CCCCC3)cc2)ccc1OC[C@@H]1CCCN1C")
"15.8 to 31.6 nM"
>>> test_value("COc1cc(NC(=O)c2ccc(-c3ccccc3)nc2)ccc1OCCN(C(C)C)C(C)C")
"39.8 to 79.4 nM"
